Below, each of the molecules is paired with its reported Activity (%) Day 47 value.
# System: recombinant BOD (bilirubin oxidase) derived from Myrothecium verrucaria MT-1 (Albifimbria verrucaria, UniProt Q12737)
# Construct: made in house; host or cells: Aspergillus sp
# Sequence (Q12737 39-572): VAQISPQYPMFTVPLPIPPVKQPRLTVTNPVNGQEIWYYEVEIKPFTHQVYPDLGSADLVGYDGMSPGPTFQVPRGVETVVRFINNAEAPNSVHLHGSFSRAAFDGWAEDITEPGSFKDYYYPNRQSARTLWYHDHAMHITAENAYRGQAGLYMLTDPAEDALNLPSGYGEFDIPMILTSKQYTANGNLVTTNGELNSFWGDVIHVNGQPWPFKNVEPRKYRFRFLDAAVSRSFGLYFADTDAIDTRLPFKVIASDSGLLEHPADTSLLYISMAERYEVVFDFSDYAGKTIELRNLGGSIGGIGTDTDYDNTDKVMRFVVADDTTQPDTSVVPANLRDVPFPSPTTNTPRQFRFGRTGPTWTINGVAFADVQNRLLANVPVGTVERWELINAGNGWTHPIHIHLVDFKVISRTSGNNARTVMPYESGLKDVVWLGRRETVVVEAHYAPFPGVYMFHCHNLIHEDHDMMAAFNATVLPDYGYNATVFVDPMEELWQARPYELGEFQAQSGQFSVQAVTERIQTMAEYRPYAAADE
# Test Details: BOD activity after leaving the BOD solution with an activity improving agent or comparative substance at 30° C. in a deoxygenated atmosphere (Test Example 1)
# Type: biochemical
# Measurement Context: left 47 days at 30° C., relative to Day 0, additive concentration as in Table 1
Counter-ions that a name gives are not always drawn.
Metric Name: Activity (%) Day 47

> print(dat)
                                    molecule          metric.name  units  measurement
 1  NCCS [Cysteamine hydrochloride, cysteamine hydrochloride, reference compound]  Activity (%) Day 47      %            1
 2  N.O=C(O)CS [Ammonium thioglycolate, ammonium thioglycolate, reference compound]  Activity (%) Day 47      %            0
 3  O=c1[nH]c(=O)c2[nH]c(=O)[nH]c2[nH]1 [Uric acid, uric acid]  Activity (%) Day 47      %          155
 4  CC(=O)N[C@@H](CS)C(=O)O [N-acetyl-L-cysteine]  Activity (%) Day 47      %          122
 5  O=C1O[C@H]([C@@H](O)CO)C(O)=C1O [L-ascorbic acid]  Activity (%) Day 47      %          151
 6  O=C(CS)OCC(O)CO (centres unmarked) [GMT, glyceryl monothioglycolate, reference compound]  Activity (%) Day 47      %            1
 7  Cl.N[C@@H](CS)C(=O)O [L-cysteine hydrochloride]  Activity (%) Day 47      %          130
 8  O[C@H](CS)[C@H](O)CS (racemic) [DTT, dithiothreitol, reference compound]  Activity (%) Day 47      %            0
 9  N[C@@H](CCC(=O)N[C@@H](CS)C(=O)NCC(=O)O)C(=O)O [Glutathione (reduced form), glutathione (reduced form)]  Activity (%) Day 47      %          113
10  Cc1c(C)c2c(c(C)c1O)CCC(C)(C(=O)O)O2 (centres unmarked) [Trolox]  Activity (%) Day 47      %          251
11  O=S([O-])[O-].[Na+].[Na+] [Sodium sulfite, sodium sulfite]  Activity (%) Day 47      %          162
